# condition-info: in n-propanol, 323.15 K
assay-metric: solubility (mole fraction)
API note: the answer field is a bare number with no unit suffix.

Entry "CCCCCCCCCCCC[N+](C)(C)CCOc1ccccc1.[Br-]" has what solubility (mole fraction)? 0.287

----------
# condition-info: in n-pentanol, 293.15 K
assay-metric: solubility (mole fraction)
API doc: respond with a numeric literal and nothing else, no unit.

// returns reported solubility (mole fraction) for input "CCCCCCCCCCCC[N+](C)(C)CCOc1ccccc1.[Br-]" 0.13

----------
# condition-info: in n-pentanol, 308.15 K
assay-metric: solubility (mole fraction)

Request the reported solubility (mole fraction) associated with "CCCCCCCCCCCC[N+](C)(C)CCOc1ccccc1.[Br-]" 0.232

----------
# condition-info: in NMP, 303.15 K
assay-metric: solubility (mole fraction)
Form field (numeric): enter value without unit.

Would you kindly share the measured solubility (mole fraction) for "CCCCCCCCCCCC[N+](C)(C)CCOc1ccccc1.[Br-]" ? 0.0702

----------
# condition-info: in isobutanol, 308.15 K
assay-metric: solubility (mole fraction)
Give only the figure.

What solubility (mole fraction) value was documented for this compound, "CCCCCCCCCCCC[N+](C)(C)CCOc1ccccc1.[Br-]" ? 0.196

----------
# condition-info: in DMF, 293.15 K
assay-metric: solubility (mole fraction)
Answer with the value's number alone.

Could you tell me which solubility (mole fraction) is on file for "CCCCCCCCCCCC[N+](C)(C)CCOc1ccccc1.[Br-]" ? 0.039

----------
# condition-info: in isopropanol, 308.15 K
assay-metric: solubility (mole fraction)
Number only, please.

Fill in: solubility (mole fraction) of "CCCCCCCCCCCC[N+](C)(C)CCOc1ccccc1.[Br-]" is ___ 0.17

----------
# condition-info: in DMF, 308.15 K
assay-metric: solubility (mole fraction)
No unit in the answer, please; the number alone is enough.

Look at this compound and give its reported solubility (mole fraction). "CCCCCCCCCCCC[N+](C)(C)CCOc1ccccc1.[Br-]" 0.0714

----------
# condition-info: in DMAc, 303.15 K
assay-metric: solubility (mole fraction)
Answer as a number with no unit attached.

Which measured solubility (mole fraction) value corresponds to "CCCCCCCCCCCC[N+](C)(C)CCOc1ccccc1.[Br-]" ? 0.0492

----------
# condition-info: in n-butanol, 298.15 K
assay-metric: solubility (mole fraction)
Answer using only a numeral; do not append any unit.

I'd like to know its solubility (mole fraction). The compound in question is "CCCCCCCCCCCC[N+](C)(C)CCOc1ccccc1.[Br-]" 0.157

----------
# condition-info: in ethanol, 323.15 K
assay-metric: solubility (mole fraction)

Look up solubility (mole fraction): "CCCCCCCCCCCC[N+](C)(C)CCOc1ccccc1.[Br-]" 0.275

----------
# condition-info: in ethanol, 298.15 K
assay-metric: solubility (mole fraction)

# input compound: "CCCCCCCCCCCC[N+](C)(C)CCOc1ccccc1.[Br-]" ; wanted: its solubility (mole fraction) 0.157

----------
# condition-info: in n-butanol, 313.15 K
assay-metric: solubility (mole fraction)
Give a plain numeric answer without units written out.

What solubility (mole fraction) value was documented for this compound, "CCCCCCCCCCCC[N+](C)(C)CCOc1ccccc1.[Br-]" ? 0.263

----------
# condition-info: in DMAc, 293.15 K
assay-metric: solubility (mole fraction)
Lab note: write the figure by itself, no unit.

Bench note: what solubility (mole fraction) did "CCCCCCCCCCCC[N+](C)(C)CCOc1ccccc1.[Br-]" show? 0.0306
